Published pIC50 for PIK3CG (human) (UniProt P48736), assembled from different documents, is shown next.
pIC50: −log10 of the molar value.

For orientation, consider the following solved cases.
// lookup pIC50 for O=C(c1cnc2ccc(-c3ccc(Cl)c(NS(=O)(=O)c4ccc(F)cc4F)c3)cn12)N1CCOCC1
> 6.00

Same question for O=C1C(=Cc2cn(CCCN3CCN(CCO)CC3)c3ncccc23)Oc2c1ccc(O)c2O please.
< 5.00

Same question for Nc1nc2cc(-c3ccc4ncc(N5CCOCC5)nc4n3)ccc2o1 please.
> 7.00

Same question for Cc1nccn1C1CN(c2cnc3ccc(-c4ccc5oc(N)nc5c4)nc3c2)C1 please.
> 7.00

Same question for Cn1cc(/C=C2\Oc3cccc(O)c3C2=O)c2c(N3CC4CCC(C3)O4)ccnc21 please.
7.29

Same question for COCCCN(C)C(=O)C1CCN(c2ccnc3c2c(C=C2Oc4ccc(NC(=O)Nc5cccnc5)cc4C2=O)cn3C)CC1 please.
5.52

Next:
// lookup pIC50 for CC1CN(C2CN(c3cnc4ccc(-c5ccc6oc(N)nc6c5)nc4n3)C2)CCO1 (stereo not drawn)
> 5.00

Same question for O=C(Nc1ccc(-c2nc(N3CCOCC3)c3ccn(CC(F)(F)F)c3n2)cc1)Nc1cccnc1 please.
7.01

Same question for Nc1nc2cc(-c3ccc4ncc(N5CCOCC5)cc4n3)ccc2o1 please.
> 7.00

Same question for Cn1cc(C=C2Oc3ccc(NC(=O)Nc4cccnc4)cc3C2=O)c2c(N3CCC(C(=O)NCCN4CCCC4)CC3)ccnc21 please.
< 5.00

Same question for Cn1cc(/C=C2\Oc3ccc(NC(=O)C(F)(F)F)cc3C2=O)c2c(-c3ccccc3)ccnc21 please.
5.16

Same question for CC(=O)Nc1nc2cc(-c3nn(Cc4cc5cccc(C)c5c(=O)n4-c4ccccc4)c4ncnc(N)c34)ccc2o1 please.
> 6.00

Same question for CC(=O)Nc1nc(C)c(-c2ccc(Cl)c(S(=O)(=O)N[C@@H](COC(C)(C)C)C(=O)O)c2)s1 please.
< 6.00

Same question for C[C@H](NC(=O)c1c(N)nn2cccnc12)c1cc2cccc(N(C)C)c2c(=O)n1-c1ccccc1 please.
5.00 to 6.00

Same question for C[C@H](Nc1ncnc2scnc12)c1cc2cccc(Cl)c2c(C(=O)N2CCOCC2)n1 please.
> 6.00

###

Published IC50 for PIK3CG (human) (UniProt P48736), assembled from different documents, is shown next.

// lookup IC50 for COc1cccc2c1nc(C(F)F)n2-c1nc(N2CCOCC2)nc2c1ncn2C1CCOCC1
< 100 nM

Same question for COCCN(C)C(=O)c1nc([C@H](C)Nc2ncnc3scnc23)cc2cccc(Cl)c12 please.
< 1000 nM

Same question for C[C@H](Nc1ncnc2scnc12)c1cc2cccc(Cl)c2c(C(=O)N(C)C)n1 please.
< 1000 nM

Next:
// lookup IC50 for Cc1cccc2cc([C@H](C)Nc3ncnc4[nH]cnc34)n(-c3ccccc3)c(=O)c12
< 100 nM

Same question for C[C@H](Nc1ncnc2cccnc12)c1cc2cccc(Cl)c2c(C(=O)N2CCNC(=O)C2)n1 please.
< 1000 nM

###

Published IC50 for UniProtKB P48736, assembled from different documents, is shown next.

For orientation, consider the following solved cases.
// lookup IC50 for C[C@H](NC(=O)c1nccnc1N)c1cc2cccc(-c3cc[nH]n3)c2c(=O)n1-c1ccccc1
1000 to 10000 nM

Same question for CC(C)N1CCC(Oc2nc([C@H](C)Nc3ccnc4ccnn34)cc3cccc(Cl)c23)CC1 please.
< 10000 nM

Same question for CCc1ccccc1-n1c(Cn2nc(-c3cn[nH]c3)c3c(N)ncnc32)cc2cccc(C)c2c1=O please.
< 100 nM

Same question for Nc1nc2cc(-c3ccc4ncc(N5CC(N6CCN(C7CC7)CC6)C5)nc4n3)ccc2o1 please.
< 10000 nM

Same question for Nc1nc2cc(-c3ccc4ncc(N5CC6CCC(C5)O6)nc4n3)ccc2o1 please.
< 1000 nM

Next:
// lookup IC50 for Cn1cc(/C=C2\Oc3cccc(O)c3C2=O)c2c(-c3cccc(S(N)(=O)=O)c3)ccnc21
140 nM

Same question for CN1CCN(NC(=O)Nc2ccc3c(c2)C(=O)/C(=C/c2cn(C)c4nccc(N5CCC(C(=O)N(C)C)CC5)c24)O3)CC1 please.
2750 nM

Same question for C[C@H](Nc1ccnc2ccnn12)c1cc2cccc(Cl)c2c(N2CCN(C)CC2)n1 please.
> 10000 nM

Same question for Cn1cc(/C=C2\Oc3ccc(NC(=O)Nc4ccc(N5CCOCC5)nc4)cc3C2=O)c2c(N3CC4CCC(C3)O4)ccnc21 please.
> 10000 nM

Same question for C[C@H](NC(=O)c1c(N)nn2cccnc12)c1cc2cccc(Cl)c2c(=O)n1CCN(C)S(C)(=O)=O please.
< 100 nM

Same question for Cn1cc(/C=C2\Oc3cccc(O)c3C2=O)c2c(-c3ccc(C(=O)N4CCC(O)C4)cc3)ccnc21 (stereo not drawn) please.
54 nM

Same question for Cc1cccc2cc(C(C)Nc3nc(O)ncc3N)n(-c3ccccc3)c(=O)c12 (stereo not drawn) please.
> 10000 nM

Same question for C[C@H](Nc1ncnc2scnc12)c1cc2cccc(Cl)c2c(C(=O)N2CCCOCC2)n1 please.
< 10000 nM

###

pIC50: −log10 of the molar value.
Published pIC50 for PIK3CG (human) (UniProt P48736), assembled from different documents, is shown next.

// lookup pIC50 for C[C@H](Nc1ncnc2[nH]cnc12)c1cc2cccc(Cl)c2c(CN2CCC2)n1
> 5.00

Same question for C[C@@H](N)C(=O)N1CCN(c2cnc3ccc(-c4ccc5oc(N)nc5c4)nc3c2)CC1 please.
> 6.00

Same question for C[C@H](NC(=O)c1nc(-c2ccc(S(C)(=O)=O)cc2)cnc1N)c1cc2cccc(Cl)c2c(=O)n1-c1ccccc1 please.
5.00 to 6.00

Next:
// lookup pIC50 for Cc1cccc2cc([C@H](C)Nc3ncnc4[nH]cnc34)nc(C(=O)N3CCOCC3)c12
> 5.00

Same question for CN1CCN(c2nnc3ccc(-c4ccc5nc(N)oc5c4)cn23)CC1 please.
< 5.00

Same question for CCn1ccc2c(N3CCOCC3)nc(-c3ccc(NC(=O)Nc4ccc(C(=O)N5CCN(C(C)C)CC5)cc4)cc3)nc21 please.
7.30

Same question for CC(=O)Nc1ccc2c(c1)C(=O)/C(=C/c1cn(C)c3nccc(N4CC5CCC(C4)O5)c13)O2 please.
6.51

Same question for Cc1nc(NC(=O)N[C@@H](Cc2ccccc2)C(=O)O)sc1-c1ccc(Cl)c(S(C)(=O)=O)c1 please.
< 6.00

Same question for Cn1cc(/C=C2\Oc3cccc(O)c3C2=O)c2c(N3CC4(C)CC3CC(C)(C)C4)ccnc21 (centres unmarked) please.
< 5.00

Same question for CNc1cccc2cc([C@H](C)NC(=O)c3c(N)nn4cccnc34)n(-c3ccccc3)c(=O)c12 please.
5.00 to 6.00

Same question for C[C@H](NC(=O)c1c(N)nn2cccnc12)c1nn2ccc(Cl)c2c(=O)n1-c1ccccc1 please.
< 5.00

Same question for CNC(=O)[C@H]1C[C@H](n2cnc3ccc(-c4cnc(C)c(NS(=O)(=O)c5ccc(F)cc5Cl)c4)cc3c2=O)C1 please.
7.82

Same question for Cc1cc(-c2cccc3cc(C4CCCN4c4ncnc(N)c4C#N)c(N4CCOCC4)nc23)cn(C)c1=O (centres unmarked) please.
7.25

Same question for CC(=O)Nc1nc(C)c(-c2ccc(Cl)c(S(=O)(=O)N[C@@H](COC(C)(C)C)C(=O)OC3CCCC3)c2)s1 please.
6.00 to 7.00

###

Published pIC50 for UniProt:P48736, assembled from different documents, is shown next.
Recall that pIC50 is obtained by taking minus log10 of the concentration measured in molar.

// lookup pIC50 for Cc1nn(C)cc1-c1nc(N2CCOCC2)c2nc(C(=O)N3CCN(C(C)(C)C(N)=O)CC3)[nH]c2n1
5.18

Same question for C[C@H]1COCCN1c1ccnc2c1c(/C=C1\Oc3ccc(NC(=O)Nc4cccnc4)cc3C1=O)cn2C please.
5.44

Same question for CN(C)CCn1ccc2c(N3CCOCC3)nc(-c3cccc(CO)c3)nc21 please.
6.15

Same question for Cc1cc(-c2cccc3cc(C4CCCN4c4ncnc(N)c4C#N)c(N4CCCCC4)nc23)cn(C)c1=O (stereo not drawn) please.
7.41

Same question for Cc1cc(CN(C)C(=O)C2CCN(c3ccnc4c3c(/C=C3\Oc5ccc(NC(=O)Nc6cccnc6)cc5C3=O)cn4C)CC2)ccn1 please.
5.90

###

Published IC50 for PIK3CG (human), assembled from different documents, is shown next.

For orientation, consider the following solved cases.
// lookup IC50 for Cc1ccccc1-n1c(Cn2nc(-c3ccc4cc[nH]c4c3)c3c(N)ncnc32)cc2cccc(C)c2c1=O
< 100 nM

Same question for CC(C)[C@H](Nc1ccc2c(c1)OCCn1cc(N3C(=O)OC[C@H]3C(F)F)nc1-2)C(N)=O please.
447 nM

Next:
// lookup IC50 for CCn1c(Cn2nc(-c3ccc4nc(NC(C)=O)sc4c3)c3c(N)ncnc32)cc2cccc(C)c2c1=O
< 100 nM

Same question for COc1ncc(-c2cccc3nc([C@H](C)Nc4ncnc5ccc(C#N)cc45)n(C4CC4)c(=O)c23)cn1 please.
771 nM

Same question for Cc1nc2c(N[C@@H](C)c3cc4cccc(C(F)(F)F)c4c(=O)n3-c3ccccc3)ncnc2s1 please.
1000 to 10000 nM
